# PROTOCOL_TEXT: recombinant UMI read abundance after kanamycin selection (control-corrected) (log10(CPM+1)); higher = more efficient recombination; extreme values may be limits of the assay; sequences stand for … in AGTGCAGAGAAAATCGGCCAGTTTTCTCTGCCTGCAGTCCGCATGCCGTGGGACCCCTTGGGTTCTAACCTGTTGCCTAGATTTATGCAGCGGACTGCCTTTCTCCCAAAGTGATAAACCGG…AGGTTGGTTTCACT; site = the 11-nt donor;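 note: IS621 bridge recombinase in Escherichia coli cells against a fixed T5 target plasmid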
# cutoff 0.03 applies to recombinant UMI read abundance (log10); >= gives yes, < gives no

SEQUENCE_RECORD	CLASS
TCATACTCATGGACCGGTTTTCCCGGTAATCCGTATTTGAA (site TCATACTCTTT)	yes
AATAGAACATGGACCGGTTTTCCCGGTAATCCGTATTTGAG (site ATTAGAACTCT)	yes
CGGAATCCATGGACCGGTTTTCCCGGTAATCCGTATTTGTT (site AGGGATCCTAA)	no
TCGCACACATGGACCGGTTTTCCCGGTAATCCGTATTTGGG (site TCGCACACTCC)	no
GCAATAACATGGACCGGTTTTCCCGGTAATCCGTATTTGGT (site GCAATAACTAC)	yes

Input: Form field: recombinant UMI read abundance (log10) at least 0.03? Entry: AGAAAGACATGGACCGGTTTTCCCGGTAATCCGTATTTGCT (site AGAAAGGCTAG)
Output: yes

###

# PROTOCOL_TEXT: recombinant UMI read abundance after kanamycin selection (control-corrected) (log10(CPM+1)); higher = more efficient recombination; extreme values may be limits of the assay; sequences stand for … in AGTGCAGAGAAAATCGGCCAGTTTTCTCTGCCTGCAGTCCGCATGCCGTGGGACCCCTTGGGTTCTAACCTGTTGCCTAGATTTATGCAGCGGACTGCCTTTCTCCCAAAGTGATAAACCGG…AGGTTGGTTTCACT; site = the 11-nt donor
# cutoff 0.01 applies to recombinant UMI read abundance (log10); >= gives T, < gives F

Known results for sequences:
SEQUENCE_RECORD	CLASS
ACTAGATCATGGACCGGTTTTCCCGGTAATCCGTATTTGAG (site ACTAGACCTCT)	T
ACATCTACATGGACCGGTTTTCCCGGTAATCCGTATTTGTG (site TCATCTACTCA)	T
ATCGTATCATGGACCGGTTTTCCCGGTAATCCGTATTTGTC (site ATCGTATCTGA)	T
ATAGGTACATGGACCGGTTTTCCCGGTAATCCGTATTTGAC (site ATAGGTACTGT)	T
CTGCTAACATGGACCGGTTTTCCCGGTAATCCGTATTTGGA (site CTGCTAACTTC)	T
AGGGAGTCATGGACCGGTTTTCCCGGTAATCCGTATTTGCC (site AGGGAGTCTGG)	T
TCCTACCCATGGACCGGTTTTCCCGGTAATCCGTATTTGGT (site TCCTACCCTAC)	F
ACGAAAACATGGACCGGTTTTCCCGGTAATCCGTATTTGCT (site CCGAAAACTAG)	F

Input: Please tell me: is the sequence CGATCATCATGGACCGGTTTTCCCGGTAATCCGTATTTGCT (site CGATAATCTAG) at or over 0.01 in terms of recombinant UMI read abundance (log10)?
Output: T

Input: Form field: recombinant UMI read abundance (log10) at least 0.01? Entry: ACAGTACCATGGACCGGTTTTCCCGGTAATCCGTATTTGCC (site ACAGTACCTGG)
Output: F

Input: Is reported recombinant UMI read abundance (log10) greater than or equal to 0.01 here: AAGCATGCATGGACCGGTTTTCCCGGTAATCCGTATTTGGG (site AAGCAAGCTCC)
Output: T

Input: Could you verify whether the entry ATAAGGGCATGGACCGGTTTTCCCGGTAATCCGTATTTGAC (site ATAAGGCCTGT) shows recombinant UMI read abundance (log10) of no less than 0.01?
Output: F

Input: Form field: recombinant UMI read abundance (log10) at least 0.01? Entry: GCTGTTACATGGACCGGTTTTCCCGGTAATCCGTATTTGCG (site GCTGTTACTCG)
Output: T
